Value source: ChEMBL document CHEMBL5376026

# key: entry, value: IC50 at 48 h
- Assay method text: Cytotoxicity against human LO2 cells assessed as reduction in cell viability incubated for 48 hrs by MTT assay
- Assay type: toxicity, cell-based, L02
Where a name gives a salt, the structure may show the parent alone.
Answer with a number only, understood to be in µM.

Compound	IC50 at 48 h (µM)
CC(C)c1ccc2c(c1)CC[C@H]1[C@](C)(C(=O)OCc3cn(CC4CN(c5ccccc5)C(=O)O4)nn3)CCC[C@]21C (stereo partly drawn)	20.8

IC50 at 48 h for COc1cccc2c1C(=O)c1c(O)c3c(c(O)c1C2=O)C[C@@](O)(C(=O)CO)C[C@@H]3O[C@H]1C[C@H](N)[C@H](O)[C@H](C)O1 [DOXORUBICIN HYDROCHLORIDE] ?
23.5
